Test system: Oryza sativa, (L.) Tebonnet
assay.name: Rice tolerance to post-transplant applications under flooded paddy conditions (Example 187), ORYSAT (Rice, Tebonnet); as to herbicidal effect rating ORYSAT: meaning of each grade not given here
experimental.conditions: Rate 0.1250 kg/ha, rated three to four weeks after treatment
recorded.endpoint: herbicidal effect rating ORYSAT
Number only, please.

Field: example entries. Status: answers known.
[[record]]
substance_smiles = "Cn1c(C(F)(F)F)cc(=O)n(-c2ccc3snc(C(=O)O)c3c2)c1=O"
meas_value = 0.0

[[record]]
substance_smiles = "C[C@H](Br)[C@H](Br)c1nsc2ccc(-n3c(=O)cc(C(F)(F)F)n(C)c3=O)cc12"
meas_value = 7.0

[[record]]
substance_smiles = "CCOP(=O)(Cc1nsc2cc(F)c(-n3c(=O)cc(C(F)(F)F)n(C)c3=O)cc12)OCC"
meas_value = 8.0

[[record]]
substance_smiles = "CCCCS(=O)(=O)NC(=O)COc1ccccc1-c1nsc2ccc(-n3c(=O)cc(C(F)(F)F)n(C)c3=O)cc12"
meas_value = 6.5


Given item Cn1c(C(F)(F)F)cc(=O)n(-c2cc3c(CBr)nsc3cc2F)c1=O , the value recorded as its herbicidal effect rating ORYSAT is 6.0

Given item Cn1c(C(F)(F)F)cc(=O)n(-c2ccc3snc(C(C#N)=Cc4ccncc4)c3c2)c1=O , the value recorded as its herbicidal effect rating ORYSAT is 4.0

Given item CC(=O)c1nsc2ccc(-n3c(=O)cc(C(F)(F)F)n(C)c3=O)cc12 , the value recorded as its herbicidal effect rating ORYSAT is 8.5

Given item COc1cc2c(cc1-c1nsc3ccc(-n4c(=O)cc(C(F)(F)F)n(C)c4=O)cc13)CCC2 , the value recorded as its herbicidal effect rating ORYSAT is 5.0

Given item CN(O)C(=O)COc1ccccc1-c1nsc2ccc(-n3c(=O)cc(C(F)(F)F)n(C)c3=O)cc12 , the value recorded as its herbicidal effect rating ORYSAT is 4.5

---

Test system: Cyperus serotinus, Rottb.
assay.name: Preemergence weed control under flooded paddy conditions, CYPSE (Flatsedge)
Type: in vivo
experimental.conditions: 0.2500 kg/ha, preemergence weeds, herbicidal effect rating 0-9, three to four weeks after treatment
Property: CYPSE; scope: individual compounds
Number only, please.

Field: example entries. Status: answers known.
[[record]]
compound = "CN(/N=C/c1nsc2ccc(-n3c(=O)cc(C(F)(F)F)n(C)c3=O)cc12)c1ccccc1"
meas_value = 6.0

[[record]]
compound = "CCC(C#N)c1nsc2ccc(-n3c(=O)cc(C(F)(F)F)n(C)c3=O)cc12 (stereo not shown)"
meas_value = 9.0

[[record]]
compound = "Cn1c(C(F)(F)F)cc(=O)n(-c2ccc3snc(C(=O)NS(=O)(=O)Cc4ccc(C(C)(C)C)cc4)c3c2)c1=O"
meas_value = 0.0


From here, focus on the item given below.
Given item COc1cc(C)c(I)cc1-c1nsc2ccc(-n3c(=O)cc(C(F)(F)F)n(C)c3=O)cc12 , the value recorded as its CYPSE is 1.0

---

System: Cyperus serotinus, Rottb.
assay.name: Preemergence weed control under flooded paddy conditions, CYPSE (Flatsedge)
Format: in vivo
experimental.conditions: 0.2500 kg/ha, preemergence weeds, herbicidal effect rating 0-9, three to four weeks after treatment
recorded.endpoint: CYPSE

Field: example entries. Status: answers known.
[[record]]
compound = "CCOCN(C(=O)c1nsc2ccc(-n3c(=O)cc(C(F)(F)F)n(C)c3=O)cc12)S(=O)(=O)Cc1ccccc1 [Example 440]"
assay_system = "Cyperus serotinus, Rottb."
meas_value = 9.0

[[record]]
compound = "CN(Cc1ccc(Cl)cc1)S(=O)(=O)NC(=O)c1nsc2ccc(-n3c(=O)cc(C(F)(F)F)n(C)c3=O)cc12 [Example 420]"
assay_system = "Cyperus serotinus, Rottb."
meas_value = 0.0


From here, focus on the item given below.
Given item CN(C(=O)COc1ccccc1-c1nsc2ccc(-n3c(=O)cc(C(F)(F)F)n(C)c3=O)cc12)S(C)(=O)=O [Example 438] , the value recorded as its CYPSE is 9.0

---

Test system: Oryza sativa, (L.) Tebonnet
assay.name: Rice tolerance to post-transplant applications under flooded paddy conditions (Example 187), ORYSAT (Rice, Tebonnet)
experimental.conditions: Rate 0.5000 kg/ha, rated three to four weeks after treatment
Property: ORYSAT herbicidal effect rating; scope: individual molecules
Number only, please.

[[record]]
substance_smiles = "COC(=O)CS(=O)(=O)Cc1nsc2ccc(-n3c(=O)cc(C(F)(F)F)n(C)c3=O)cc12"
meas_value = 0.0


Given item CC(=O)Nc1nnc(S(=O)(=O)NC(=O)COc2ccc(C)cc2-c2nsc3ccc(-n4c(=O)cc(C(F)(F)F)n(C)c4=O)cc23)s1 , the value recorded as its ORYSAT herbicidal effect rating is 0.0

Given item Cc1nsc2ccc(-n3c(=O)c(Cl)c(C(F)(F)F)n(C)c3=O)cc12 , the value recorded as its ORYSAT herbicidal effect rating is 0.0

Given item COC(=O)COc1c(-c2nsc3ccc(-n4c(=O)cc(C(F)(F)F)n(C)c4=O)cc23)ccc(C)c1C , the value recorded as its ORYSAT herbicidal effect rating is 7.0

---

System: Oryza sativa, (L.) Tebonnet
assay.name: Rice tolerance to post-transplant applications under flooded paddy conditions (Example 187), ORYSAT (Rice, Tebonnet)
experimental.conditions: Rate 0.0625 kg/ha, rated three to four weeks after treatment
Property: ORYSAT herbicidal effect rating; scope: individual compounds

[[record]]
compound = "Cc1nsc2ccc(-n3c(=O)cc(C(F)(F)F)n(CC#N)c3=O)cc12"
recorded_endpoint = "ORYSAT herbicidal effect rating"
meas_value = 4.0


Given item C=C(C(=O)OC)C(C)OCc1nsc2ccc(-n3c(=O)cc(C(F)(F)F)n(C)c3=O)cc12 (stereo not shown) , the value recorded as its ORYSAT herbicidal effect rating is 4.0

Given item Cn1c(C(F)(F)F)cc(=O)n(-c2ccc3snc(COC(CF)CF)c3c2)c1=O , the value recorded as its ORYSAT herbicidal effect rating is 6.0

Given item Cn1c(C(F)(F)F)cc(=O)n(-c2ccc3snc(COCCCCl)c3c2)c1=O , the value recorded as its ORYSAT herbicidal effect rating is 7.0

Given item Cc1nsc2ccc(-n3c(=O)cc(C(F)(F)F)n(Cc4ccccc4)c3=O)cc12 , the value recorded as its ORYSAT herbicidal effect rating is 2.0

Given item CCOc1nc(C(F)(F)F)cc(=O)n1-c1ccc2snc(-c3cc(C)ccc3OCC(=O)OC)c2c1 , the value recorded as its ORYSAT herbicidal effect rating is 1.0

Given item CC(C)=CCOCc1nsc2ccc(-n3c(=O)cc(C(F)(F)F)n(C)c3=O)cc12 , the value recorded as its ORYSAT herbicidal effect rating is 4.0

Given item Cn1c(C(F)(F)F)cc(=O)n(-c2ccc3snc(COC4C=CCCC4)c3c2)c1=O (stereo not shown) , the value recorded as its ORYSAT herbicidal effect rating is 3.0

Given item C=CCCOCc1nsc2ccc(-n3c(=O)cc(C(F)(F)F)n(C)c3=O)cc12 , the value recorded as its ORYSAT herbicidal effect rating is 8.0

Given item C#CCn1c(C(F)(F)F)cc(=O)n(-c2ccc3snc(C)c3c2)c1=O , the value recorded as its ORYSAT herbicidal effect rating is 2.0

Given item C=C(C)C1CC=C(COCc2nsc3ccc(-n4c(=O)ccn(C)c4=O)cc23)CC1 (stereo not shown) , the value recorded as its ORYSAT herbicidal effect rating is 2.0

Given item C=CCOc1nc(C(F)(F)F)cc(=O)n1-c1ccc2snc(-c3cc(C)ccc3OC)c2c1 , the value recorded as its ORYSAT herbicidal effect rating is 0.0

Given item Cn1c(C(F)(F)F)cc(=O)n(-c2ccc3snc(CO)c3c2)c1=O , the value recorded as its ORYSAT herbicidal effect rating is 4.0

---

Test system: Sagittaria pygmaea, L.
assay.name: Preemergence weed control under flooded paddy conditions, SAGPY (Arrowhead (Pygmaea)); also: meaning of each grade not given here
Format: in vivo
experimental.conditions: Rate 0.0320 kg/ha; preemergence, flooded paddy; rated 3-4 weeks after treatment
recorded.endpoint: herbicidal effect rating, SAGPY
Number only, please.

[[record]]
compound = "CCCCCCC#CCCOC(=O)COc1ccc(C)cc1-c1nsc2ccc(-n3c(=O)cc(C(F)(F)F)n(C)c3=O)cc12 [Example 522]"
meas_value = 0.0

[[record]]
compound = "Cc1ccc(C(=O)C(C)Oc2ccccc2-c2nsc3ccc(-n4c(=O)cc(C(F)(F)F)n(C)c4=O)cc23)cc1C (centres unmarked) [Example 550]"
meas_value = 0.0

[[record]]
compound = "COCCOC(=O)C(C)(C)Oc1ccc(C)cc1-c1nsc2ccc(-n3c(=O)cc(C(F)(F)F)n(C)c3=O)cc12 [Example 546]"
meas_value = 0.0

[[record]]
compound = "C#CCOC(=O)C(C)(C)Oc1ccc(C)cc1-c1nsc2ccc(-n3c(=O)cc(C(F)(F)F)n(C)c3=O)cc12 [Example 528]"
meas_value = 1.0

[[record]]
compound = "Cc1ccc(OCC(=O)c2ccc(Cl)cc2)c(-c2nsc3ccc(-n4c(=O)cc(C(F)(F)F)n(C)c4=O)cc23)c1 [Example 538]"
meas_value = 0.0


Measured on Sagittaria pygmaea, L., Cc1ccc(OCC(=O)c2ccc(OC(F)F)cc2)c(-c2nsc3ccc(-n4c(=O)cc(C(F)(F)F)n(C)c4=O)cc23)c1 [Example 543] has a documented herbicidal effect rating, SAGPY of 0.0

Measured on Sagittaria pygmaea, L., C=CS(=O)(=O)NC(=O)COc1ccccc1-c1nsc2ccc(-n3c(=O)cc(C(F)(F)F)n(C)c3=O)cc12 [Example 557] has a documented herbicidal effect rating, SAGPY of 0.0

Measured on Sagittaria pygmaea, L., CC(C)S(=O)(=O)NC(=O)COc1ccccc1-c1nsc2ccc(-n3c(=O)cc(C(F)(F)F)n(C)c3=O)cc12 [Example 555] has a documented herbicidal effect rating, SAGPY of 0.0
